I'd be grateful if you could share measured growth inhibition for these entries.
# Test system: SUDIPGIV (diffuse intrinsic pontine glioma line)
# assay_protocol: growth inhibition (% activity, log2 RLU normalised to DMSO / staurosporine); higher = more growth inhibition
# experimental_parameters: 33 µM
A number alone suffices; assume %.

Task item: // map CC(C)NCC(O)c1ccc(O)c(O)c1 (centres undefined) to recorded growth inhibition (system: SUDIPGIV)
Reply: -0.959

Task item: // lookup growth inhibition | system=SUDIPGIV | key= COc1nc(N)nc2c1ncn2[C@@H]1O[C@H](CO)[C@@H](O)[C@@H]1O
Reply: 0.63

Task item: Short answer please: growth inhibition, SUDIPGIV, entry Nc1nc(N)nc(-c2cc(Cl)ccc2Cl)n1
Reply: -1.63

Task item: Lab note: need growth inhibition for NNc1nncc2ccccc12 on SUDIPGIV, anyone have it?
Reply: 2.81

Task item: Param readout = growth inhibition; param system = SUDIPGIV; param query = CN1CCN2c3ncccc3Cc3ccccc3C2C1 (centres undefined) ; response: value
Reply: -0.123

Task item: Identify the measured growth inhibition of CN1CC2c3ccccc3Oc3ccc(Cl)cc3C2C1 (centres undefined) for SUDIPGIV.
Reply: 2.1

Task item: growth inhibition of COc1cc(/C=C/C(=O)CC(=O)/C=C/c2ccc(O)c(OC)c2)ccc1O on SUDIPGIV?
Reply: -2.56

Task item: Query the reported growth inhibition for SUDIPGIV; item: CCCCC1=NC2(CCCC2)C(=O)N1Cc1ccc(-c2ccccc2-c2nnn[nH]2)cc1
Reply: -0.0514

Task item: Given the entry Cc1c(N(C)C)c(=O)n(-c2ccccc2)n1C , what growth inhibition was observed with SUDIPGIV?
Reply: -1.34

Task item: Test system SUDIPGIV; read-out growth inhibition; what value for O=C1CC[C@@H](C(=O)N2CSC[C@H]2C(=O)O)N1 ?
Reply: 1.86

Task item: Lab note: need growth inhibition for O=C(O)c1ccc(-n2nc(-c3ccccc3O)nc2-c2ccccc2O)cc1 on SUDIPGIV, anyone have it?
Reply: -5.33

Task item: Item CC(=O)OCC(CCn1cnc2cnc(N)nc21)COC(C)=O with SUDIPGIV - growth inhibition?
Reply: -3.45

Task item: Could you share what growth inhibition was measured for CCCCOc1ccc(C(=O)CCN2CCCCC2)cc1 , tested on SUDIPGIV?
Reply: 0.947

Task item: // fetch SUDIPGIV growth inhibition for CN(C)CC/C=C1/c2ccccc2Sc2ccc(Cl)cc21
Reply: -1.17

Task item: Recall the recorded growth inhibition for CCCCNc1ccc(C(=O)OCCN(C)C)cc1 with SUDIPGIV and state it.
Reply: -0.481

Task item: Form field: growth inhibition recorded for CC(C)n1c(/C=C/[C@@H](O)C[C@@H](O)CC(=O)O)c(-c2ccc(F)cc2)c2ccccc21 with SUDIPGIV (enter value)
Reply: 26.2

Task item: Value wanted: growth inhibition (SUDIPGIV) of entry CC(=O)O[C@]1(C(C)=O)CC[C@H]2[C@@H]3C[C@H](C)C4=CC(=O)CC[C@]4(C)[C@H]3CC[C@@]21C
Reply: -4.85

Task item: Form entry - test system: SUDIPGIV; read-out: growth inhibition; molecule: CC(=O)Nc1ncc([N+](=O)[O-])s1
Reply: -1.68

Task item: SUDIPGIV / growth inhibition / COc1cc([C@@H]2c3cc4c(cc3[C@@H](O[C@@H]3O[C@@H]5CO[C@@H](C)O[C@H]5[C@H](O)[C@H]3O)[C@H]3COC(=O)[C@H]23)OCO4)cc(OC)c1O : value?
Reply: 38.2

Task item: Report growth inhibition for [I-].[K+] tested on SUDIPGIV.
Reply: -0.567

Task item: Record Cn1c(=O)c2c(ncn2CC2OCCO2)n(C)c1=O : what is its growth inhibition with SUDIPGIV?
Reply: 2.59

Task item: Look up growth inhibition with SUDIPGIV for this molecule: CN(CCOc1ccc(NS(C)(=O)=O)cc1)CCc1ccc(NS(C)(=O)=O)cc1
Reply: -2.75

Task item: Notebook: pull reported growth inhibition for SUDIPGIV, entry O=C1NCC2(CCN(CCc3ccccc3)CC2)O1
Reply: -1.95

Task item: Find the measured growth inhibition: item CCCc1cc(=O)[nH]c(=S)[nH]1 , target or system SUDIPGIV.
Reply: -1.58
